The entries below come with measured protein stability index values attached.
B1: DFFB (parent)
chain: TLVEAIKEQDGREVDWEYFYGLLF

- Variants of: B1
- assay.remarks: protein stability index of a GFP-peptide fusion (GPS, HEK-293T) (PSI 1-6); higher = more stable;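 also: lentivirally expressed fusions sorted by FACS into six bins by GFP to DsRed ratio, PSI derived from sequencing read proportions per bin multiplied by bin number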
- condition.description: c terminus: a fixed tail appended
reported.property: protein stability index

{"variant.identifier": "E4N", "reported.property": "protein stability index", "recorded.value": 2.11}
{"variant.identifier": "Q9K", "reported.property": "protein stability index", "recorded.value": 1.55}
{"variant.identifier": "D10F", "reported.property": "protein stability index", "recorded.value": 1.91}
{"variant.identifier": "I6H", "reported.property": "protein stability index", "recorded.value": 2.58}
{"variant.identifier": "L22V", "reported.property": "protein stability index", "recorded.value": 1.96}
{"variant.identifier": "V3R", "reported.property": "protein stability index", "recorded.value": 2.23}
{"variant.identifier": "W16T", "reported.property": "protein stability index", "recorded.value": 3.12}
{"variant.identifier": "D15Q", "reported.property": "protein stability index", "recorded.value": 1.78}
{"variant.identifier": "G11S", "reported.property": "protein stability index", "recorded.value": 1.7}
{"variant.identifier": "D10V", "reported.property": "protein stability index", "recorded.value": 1.73}
{"variant.identifier": "F24D", "reported.property": "protein stability index", "recorded.value": 2.21}
{"variant.identifier": "L22R", "reported.property": "protein stability index", "recorded.value": 1.8}
{"variant.identifier": "F24A", "reported.property": "protein stability index", "recorded.value": 1.69}
{"variant.identifier": "T1G", "reported.property": "protein stability index", "recorded.value": 2.05}
{"variant.identifier": "D15S", "reported.property": "protein stability index", "recorded.value": 2.12}
{"variant.identifier": "Q9N", "reported.property": "protein stability index", "recorded.value": 1.57}
{"variant.identifier": "F19I", "reported.property": "protein stability index", "recorded.value": 1.55}
{"variant.identifier": "G21Y", "reported.property": "protein stability index", "recorded.value": 1.53}
{"variant.identifier": "E17A", "reported.property": "protein stability index", "recorded.value": 2.06}
